Data credit: patent US20260373248A1

# Test system: hEPO
# EXPERIMENT: Quantification of hEPO in serum after IV injection of mRNA (Human EPO ELISA)
# Format: in vivo
# CONDITION INFO: Balb/c mice, 2.5 μg mRNA IV, serum after 6 hours
Non-standard residues stand in square brackets, D forms with d. Residues, ends and D or L forms follow the SMILES beside them. *: point of attachment. Gly(N-(3-decanoyloxypropyl)) = CCCCCCCCCC(=O)OCCCNCC(=O)O; N(3-lauroyloxypropyl)Gly = CCCCCCCCCCCC(=O)OCCCNCC(=O)O; N(2-decanoyloxyethyl)Gly = CCCCCCCCCC(=O)OCCNCC(=O)O; N(3-imidazol-1-ylpropyl)Gly = O=C(O)CNCCCn1ccnc1; Gly(N-3-morpholinopropyl) = O=C(O)CNCCCN1CCOCC1; N(2-ethylhexyl)Gly = CCCCC(CC)CNCC(=O)O; N(CH(CH2OH)2)Gly = O=C(O)CNC(CO)CO; NHexGly = CCCCCCNCC(=O)O; For = O=C*
Output Satisfied for hEPO not less than 200 ng/mL; output Not satisfied otherwise.

MOLECULE	TARGET OF ASSAY	ASSIGNED CLASS
CCCCCCCCCCCC(=O)OCCCN(CC(=O)N(CC(=O)N(CC(=O)N(CCCOC(=O)CCCCCCCCCCC)CC(=O)N(CC(N)=O)CC(CC)CCCC)CC(CC)CCCC)CC(CC)CCCC)C(=O)CN(CC(CC)CCCC)C(=O)CN(C=O)CCCN1CCOCC1 (stereo not drawn) [Compound 64] (For-[Gly(N-3-morpholinopropyl)][N(2-ethylhexyl)Gly][N(3-lauroyloxypropyl)Gly][N(2-ethylhexyl)Gly][N(2-ethylhexyl)Gly][N(3-lauroyloxypropyl)Gly][N(2-ethylhexyl)Gly]-NH2)	hEPO	Not satisfied

Hi team, for CCCCCCCCCC(=O)OCCN(CC(=O)N(CCOC(=O)CCCCCCCCC)CC(=O)N(CC(=O)N(CCOC(=O)CCCCCCCCC)CC(=O)N(CCOC(=O)CCCCCCCCC)CC(=O)N(CC(N)=O)CC(CC)CCCC)CC(CC)CCCC)C(=O)CNC(CO)CO (stereo not drawn) [Compound 16] (H-[N(CH(CH2OH)2)Gly][N(2-decanoyloxyethyl)Gly][N(2-decanoyloxyethyl)Gly][N(2-ethylhexyl)Gly][N(2-decanoyloxyethyl)Gly][N(2-decanoyloxyethyl)Gly][N(2-ethylhexyl)Gly]-NH2) , is the recorded hEPO at or above 200 ng/mL? Satisfied

Queued: CCCCCCCCCC(=O)OCCCN(CC(=O)N(CCCOC(=O)CCCCCCCCC)CC(=O)N(CCCCCC)CC(=O)N(CCCOC(=O)CCCCCCCCC)CC(=O)N(CCCOC(=O)CCCCCCCCC)CC(=O)N(CCCCCC)CC(N)=O)C(=O)CNCCCn1ccnc1 [Compound 109] (H-[N(3-imidazol-1-ylpropyl)Gly][Gly(N-(3-decanoyloxypropyl))][Gly(N-(3-decanoyloxypropyl))][NHexGly][Gly(N-(3-decanoyloxypropyl))][Gly(N-(3-decanoyloxypropyl))][NHexGly]-NH2) Not satisfied

Also, CCCCCCCCCC(=O)OCCCN(C=O)CC(=O)N(CCCOC(=O)CCCCCCCCC)CC(=O)N(CC(=O)N(CCCN1CCOCC1)CC(=O)N(CCCOC(=O)CCCCCCCCC)CC(=O)N(CCCOC(=O)CCCCCCCCC)CC(=O)N(CC(N)=O)CC(CC)CCCC)CC(CC)CCCC (stereo not drawn) [Compound 112] (For-[Gly(N-(3-decanoyloxypropyl))][Gly(N-(3-decanoyloxypropyl))][N(2-ethylhexyl)Gly][Gly(N-3-morpholinopropyl)][Gly(N-(3-decanoyloxypropyl))][Gly(N-(3-decanoyloxypropyl))][N(2-ethylhexyl)Gly]-NH2) please. Satisfied

Would you kindly repeat that for CCCCCCCCCC(=O)OCCCN(CC(=O)N(CC(=O)N(CC(=O)N(CCCOC(=O)CCCCCCCCC)CC(=O)N(CC(N)=O)CC(CC)CCCC)CC(CC)CCCC)CC(CC)CCCC)C(=O)CN(CC(CC)CCCC)C(=O)CNC(CO)CO (stereo not drawn) [Compound 5] (H-[N(CH(CH2OH)2)Gly][N(2-ethylhexyl)Gly][Gly(N-(3-decanoyloxypropyl))][N(2-ethylhexyl)Gly][N(2-ethylhexyl)Gly][Gly(N-(3-decanoyloxypropyl))][N(2-ethylhexyl)Gly]-NH2) ? Satisfied

Next entry: CCCCCCCCCC(=O)OCCCN(CC(=O)N(CC(=O)N(CC(=O)N(CCCOC(=O)CCCCCCCCC)CC(=O)N(CC(N)=O)CC(CC)CCCC)CC(CC)CCCC)CC(CC)CCCC)C(=O)CN(CC(CC)CCCC)C(=O)CNCCCn1ccnc1 (stereo not drawn) [Compound 107] (H-[N(3-imidazol-1-ylpropyl)Gly][N(2-ethylhexyl)Gly][Gly(N-(3-decanoyloxypropyl))][N(2-ethylhexyl)Gly][N(2-ethylhexyl)Gly][Gly(N-(3-decanoyloxypropyl))][N(2-ethylhexyl)Gly]-NH2) Satisfied

How about CCCCCCCCCC(=O)OCCCN(CC(=O)N(CC(=O)N(CC(=O)N(CCCOC(=O)CCCCCCCCC)CC(=O)N(CC(N)=O)CC(CC)CCCC)CC(CC)CCCC)CC(CC)CCCC)C(=O)CN(CC(CC)CCCC)C(=O)CN(C=O)CCCN1CCOCC1 (stereo not drawn) [Compound 106] (For-[Gly(N-3-morpholinopropyl)][N(2-ethylhexyl)Gly][Gly(N-(3-decanoyloxypropyl))][N(2-ethylhexyl)Gly][N(2-ethylhexyl)Gly][Gly(N-(3-decanoyloxypropyl))][N(2-ethylhexyl)Gly]-NH2) ? Satisfied

Let us now turn to CCCCCCCC(=O)OCCCN(C=O)CC(=O)N(CCCOC(=O)CCCCCCC)CC(=O)N(CCc1ccccc1)CC(=O)N(CC(=O)N(CCCn1ccnc1)CC(=O)N(CCCOC(=O)CCCCCCC)CC(=O)N(CCc1ccccc1)CC(=O)N(CCCOC(=O)CCCCCCC)CC(=O)N(CC(N)=O)CC(CC)CCCC)CC(CC)CCCC (stereo not drawn) [Compound 123] Not satisfied

Also CCCCCCCCCC(=O)OCCN(CC(=O)N(CCOC(=O)CCCCCCCCC)CC(=O)N(CC(=O)N(CCOC(=O)CCCCCCCCC)CC(=O)N(CCOC(=O)CCCCCCCCC)CC(=O)N(CC(N)=O)CC(CC)CCCC)CC(CC)CCCC)C(=O)CN(C=O)CCCN1CCOCC1 (stereo not drawn) [Compound 76] (For-[Gly(N-3-morpholinopropyl)][N(2-decanoyloxyethyl)Gly][N(2-decanoyloxyethyl)Gly][N(2-ethylhexyl)Gly][N(2-decanoyloxyethyl)Gly][N(2-decanoyloxyethyl)Gly][N(2-ethylhexyl)Gly]-NH2) ? Satisfied

* * *

# EXPERIMENT: Delivery vehicle size and polydispersity by dynamic light scattering
# Format: physicochemical
# CONDITION INFO: formulation recipe R7
Starred links: 1 amine or outer side, 2 acyl side, 3 side chain; linkers in the order of their positions; H or OH if unused. Non-standard residues stand in square brackets, D forms with d. Residues, ends and D or L forms follow the SMILES beside them. *: point of attachment. Gly(N-(3-decanoyloxypropyl)) = CCCCCCCCCC(=O)OCCCNCC(=O)O; N(2-decanoyloxyethyl)Gly = CCCCCCCCCC(=O)OCCNCC(=O)O; Gly(N-(CH2)3O-octanoyl) = CCCCCCCC(=O)OCCCNCC(=O)O; Gly(N-3-morpholinopropyl) = O=C(O)CNCCCN1CCOCC1; N(2-ethylhexyl)Gly = CCCCC(CC)CNCC(=O)O; X1 = CCCCC(CC)CSSCCN(CC(=O)[*:2])[*:1]; N(CH(CH2OH)2)Gly = O=C(O)CNC(CO)CO; N(octyl)Gly = CCCCCCCCNCC(=O)O; For = O=C*
// reported Particle Size per item
Field format: number, assumed nm, no unit text.

Use the examples below as a reference point.
COMPOUND	REPORTED MEASUREMENT
CCCCCCCCCC(=O)OCCN(CC(=O)N(CCOC(=O)CCCCCCCCC)CC(=O)N(CC(=O)N(CCOC(=O)CCCCCCCCC)CC(=O)N(CCOC(=O)CCCCCCCCC)CC(=O)N(CC(N)=O)CC(CC)CCCC)CC(CC)CCCC)C(=O)CN(C=O)CCCN1CCOCC1 (stereo not shown) [Compound 76] (For-[Gly(N-3-morpholinopropyl)][N(2-decanoyloxyethyl)Gly][N(2-decanoyloxyethyl)Gly][N(2-ethylhexyl)Gly][N(2-decanoyloxyethyl)Gly][N(2-decanoyloxyethyl)Gly][N(2-ethylhexyl)Gly]-NH2)	75.3
CCCCCCCCCC(=O)OCCN(CC(=O)N(CCOC(=O)CCCCCCCCC)CC(=O)N(CC(=O)N(CCOC(=O)CCCCCCCCC)CC(=O)N(CCOC(=O)CCCCCCCCC)CC(=O)N(CC(N)=O)CC(CC)CCCC)CC(CC)CCCC)C(=O)CNC(CO)CO (stereo not shown) [Compound 16] (H-[N(CH(CH2OH)2)Gly][N(2-decanoyloxyethyl)Gly][N(2-decanoyloxyethyl)Gly][N(2-ethylhexyl)Gly][N(2-decanoyloxyethyl)Gly][N(2-decanoyloxyethyl)Gly][N(2-ethylhexyl)Gly]-NH2)	69.1

# Particle Size lookup, item CCCCCCCCCC(=O)OCCCN(CC(=O)N(CC(N)=O)CC(CC)CCCC)C(=O)CN(CCCCCCCC)C(=O)CN(CC(CC)CCCC)C(=O)CN(CCCOC(=O)CCCCCCCCC)C(=O)CN(CCCCCCCC)C(=O)CNC(CO)CO (stereo not shown) [Compound 32] (H-[N(CH(CH2OH)2)Gly][N(octyl)Gly][Gly(N-(3-decanoyloxypropyl))][N(2-ethylhexyl)Gly][N(octyl)Gly][Gly(N-(3-decanoyloxypropyl))][N(2-ethylhexyl)Gly]-NH2) 65.1

Ok, now CCCCCCCC(=O)OCCCN(CC(=O)N(CCCOC(=O)CCCCCCC)CC(=O)N(CCSSCC(CC)CCCC)CC(=O)N(CCCOC(=O)CCCCCCC)CC(=O)N(CCCOC(=O)CCCCCCC)CC(=O)N(CCSSCC(CC)CCCC)CC(N)=O)C(=O)CNC(CO)CO (stereo not shown) [Compound 128] (H-[N(CH(CH2OH)2)Gly][Gly(N-(CH2)3O-octanoyl)][Gly(N-(CH2)3O-octanoyl)][X1][Gly(N-(CH2)3O-octanoyl)][Gly(N-(CH2)3O-octanoyl)][X1]-NH2) 82.7
